- target-system: T1, LRRC7, Q96NW7
- T1 sequence (Q96NW7 1440-1537, limits assumed, looked up): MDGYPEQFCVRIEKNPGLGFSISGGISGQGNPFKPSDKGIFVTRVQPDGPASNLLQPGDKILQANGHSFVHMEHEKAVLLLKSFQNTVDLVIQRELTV
- test-name: holdup assay
- Parameters: key: below the threshold = too weak to quantify, mostly under pKd 3.1 to 4
- condition: plain residues with an end cap or a label only (N-terminal biotin on a linker: ttds)
readout: pKd

// below: answered binders
[
  {
    "binder": "QSARYRDTEL [TJP2, Q9UDY2]",
    "pKd": 3.86
  },
  {
    "binder": "ERKLSSESQV [LRP4, O75096]",
    "pKd": "below the threshold"
  },
  {
    "binder": "STLTIFETAL [ABCC4, O15439]",
    "pKd": 4.39
  },
  {
    "binder": "IYVPEAQTRL [DLGAP4, Q9Y2H0]",
    "pKd": "below the threshold"
  },
  {
    "binder": "TVASEKESVM [SLC1A5, Q15758]",
    "pKd": "below the threshold"
  }
]

[ask] Write down pKd measured for item VLRLQSETSV [VANGL1, Q8TAA9]
[reply] below the threshold

[ask] Return the recorded pKd value; entry: SSRTRRETQL [HPV16-E6, P03126]
[reply] 3.9

[ask] Check the records and state pKd for SRPQRTQTQV [HPV67-E6, A4U7F2]
[reply] below the threshold
